// provenance: patent US20220098319A1

- study_system: T1, His-tagged CD73 extracellular domain protein (hCD73 ECD-His) (human, UniProt P21589 27-547)
- T1 construct: Expressed in CHO cells from pTT5-hCD73 ECD-His6, purified on nickel column; also called hCD73 ECD-His6; human CD73 ECD
- T1 sequence: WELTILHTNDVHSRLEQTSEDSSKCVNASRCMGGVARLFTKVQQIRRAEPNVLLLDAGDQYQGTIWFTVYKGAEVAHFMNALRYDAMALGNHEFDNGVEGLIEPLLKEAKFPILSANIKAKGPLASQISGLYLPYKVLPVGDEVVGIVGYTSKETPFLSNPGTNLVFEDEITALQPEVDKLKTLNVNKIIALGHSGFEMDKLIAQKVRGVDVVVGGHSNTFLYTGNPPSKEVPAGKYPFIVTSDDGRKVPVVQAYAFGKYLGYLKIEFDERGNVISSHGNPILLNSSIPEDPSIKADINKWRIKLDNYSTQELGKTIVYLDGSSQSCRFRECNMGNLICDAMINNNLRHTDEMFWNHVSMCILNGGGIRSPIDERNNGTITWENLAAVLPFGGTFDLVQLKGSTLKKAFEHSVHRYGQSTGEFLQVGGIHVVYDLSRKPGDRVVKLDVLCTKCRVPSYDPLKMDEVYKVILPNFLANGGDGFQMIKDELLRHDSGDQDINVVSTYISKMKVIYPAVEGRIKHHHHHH
- method: Octet BLI, antibody on AHC sensor, antigen 50-200 nM, 1:1 fit

binder: mab044xhIgG1TM (clone 80H7D6), mouse-human chimeric anti-CD73 antibody (antibody, V domains shown, also called mAb044 chimeric antibody) VH: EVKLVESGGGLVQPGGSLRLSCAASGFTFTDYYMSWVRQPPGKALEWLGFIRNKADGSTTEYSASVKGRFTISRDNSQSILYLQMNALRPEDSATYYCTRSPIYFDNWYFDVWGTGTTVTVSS VL: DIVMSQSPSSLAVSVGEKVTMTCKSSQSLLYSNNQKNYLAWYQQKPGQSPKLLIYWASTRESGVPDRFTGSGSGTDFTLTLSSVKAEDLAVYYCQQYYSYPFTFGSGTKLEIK
koff / s⁻¹: 3.29e-05
--
binder: mab032xhIgG1TM (clone 56F12H8), mouse-human chimeric anti-CD73 antibody (antibody, V domains shown, also called mAb032 chimeric antibody) VH: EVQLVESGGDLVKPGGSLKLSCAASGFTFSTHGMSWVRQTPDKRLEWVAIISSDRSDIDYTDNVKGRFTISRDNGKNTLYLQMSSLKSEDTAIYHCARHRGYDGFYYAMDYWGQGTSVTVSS VL: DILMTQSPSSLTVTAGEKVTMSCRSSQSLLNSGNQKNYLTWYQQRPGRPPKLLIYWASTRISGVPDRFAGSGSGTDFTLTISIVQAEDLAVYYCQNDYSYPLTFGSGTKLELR
koff / s⁻¹: 1.95e-05
